- Target system: full-length human CSNK1A1 (Homo sapiens)
- Construct: N-terminal Glutathion-S-Transferase (GST) and full-length human CSNK1A1; purchased Life Technologies PV4174; host or cells: baculovirus infected insect cells
- Method notes: CSNK1A1 High ATP Assay (ADP-Glo, 1 mM ATP);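 further: 30 min kinase reaction at 22 °C with 100 µM peptide substrate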
- Format: biochemical
- Experimental parameters: Table 3, read-out: CSNK1A1 high ATP assay IC50 [mol/l] (median)
Outcome measure: pIC50
pIC50 is a log-scale quantity: -log10 of the concentration expressed in molar.

Answered examples (3):
Please report the recorded pIC50 for O=C(Nc1cc(-c2[nH]c3c(O[C@H]4CCOC4)cc(F)nc3c2-c2ccccn2)ccn1)C(CC(F)F)c1ccc(F)cc1 (mixture of isomers) [Example 53] . 8.22

// lookup pIC50 for O=C(Nc1cc(-c2[nH]c3ccc(F)nc3c2-c2ccccn2)ccn1)[C@H](CC(F)F)c1ccc(F)cc1 (single isomer, unassigned) 6.07

For the molecule shown here, O=C(Nc1cc(-c2[nH]c3cccnc3c2-c2cccc(F)n2)ccn1)C(CC(F)F)c1ccc(F)cc1 (single isomer, unassigned; (-)) [Example 26] , give the reported pIC50. 7.80

Continuing:
Fill in the blank: the reported pIC50 of O=C(Nc1cc(-c2[nH]c3ccc(F)nc3c2-c2cc(F)ccn2)ccn1)C(CC(F)F)c1ccc(F)cc1 (single isomer, unassigned) [Example 97] is ____. 7.44

# get_value(readout='pIC50', item= O=C(Nc1cc(-c2[nH]c3c(OCC(F)F)ncnc3c2-c2ccccn2)ccn1)C(CC(F)F)c1ccc(F)cc1 (racemic) [Example 78] ) 8.29

# lookup: pIC50 of O=C(Nc1cc(-c2[nH]c3c(N4CCNCC4)ccnc3c2-c2ccccn2)ccn1)C(CC(F)F)c1ccc(F)cc1 (single isomer, unassigned) [Example 93] 8.27

====

- Target system: full-length human CSNK1A1 (Homo sapiens)
- Construct: N-terminal Glutathion-S-Transferase (GST) and full-length human CSNK1A1; purchased Life Technologies PV4174; host or cells: baculovirus infected insect cells
- Method notes: CSNK1A1 Assay 2 (ADP-Glo, 1 μM ATP, substrate biotin-Ahx-KRRRAL-pS-VASLPGL)
- Format: biochemical
- Experimental parameters: Table 3, read-out: CSNK1A1 Assay 2 IC50 [mol/l] (median)
The entries below come with measured pIC50 values attached.
In textbook form, pIC50 equals minus log to base ten of the concentration in mol/L.

Past entries and their recorded results:
Can you share its pIC50? I mean this compound: O=C(Nc1cc(-c2[nH]c3ncc(F)nc3c2-c2ccccn2)ccn1)C(CC(F)F)c1ccc(F)cc1 (single isomer, unassigned) [Example 64] 7.64

Query: pIC50; subject: Cc1ccnc2c(-c3ccccn3)c(-c3ccnc(NC(=O)C(CC(F)F)c4ccc(F)cc4)c3)[nH]c12 (stereo not shown) [Example 84] 8.32

Which pIC50 value belongs to O=C(Nc1cc(-c2[nH]c3c(OC4CC4)cc(F)nc3c2-c2ccccn2)ccn1)C(CC(F)F)c1ccc(F)cc1 (stereo not shown) [Example 45] ? 7.65

Fill in: pIC50 of O=C(Nc1cc(-c2[nH]c3c(OCC(F)F)cc(F)nc3c2-c2ccccn2)ccn1)C(CC(F)F)c1ccc(F)cc1 (single isomer, unassigned) [Example 30] is ___ 8.05

Field request: pIC50 | item: O=C(Nc1cc(-c2[nH]c3c(OC[C@@H]4COCCO4)cc(F)nc3c2-c2ccccn2)ccn1)C(CC(F)F)c1ccc(F)cc1 (single isomer, unassigned) [Example 59] 7.90

Continuing:
Which pIC50 value is on record for O=C(Nc1cc(-c2[nH]c3c(OC4CC4)cc(F)nc3c2-c2ccccn2)ccn1)C(CC(F)F)c1ccc(F)cc1 (single isomer, unassigned) [Example 44] ? 8.22

Item O=C(Nc1cc(-c2[nH]c3cc(F)cnc3c2-c2ccccc2)ccn1)C(CC(F)F)c1ccc(F)cc1 (racemic) [Example 19] has what recorded pIC50? 8.04

// query pIC50 value for entry COCCOc1cc(F)nc2c(-c3ccccn3)c(-c3ccnc(NC(=O)C(CC(F)F)c4ccc(F)cc4)c3)[nH]c12 (single isomer, unassigned) [Example 91] 8.02

Suppose we examine the compound O=C(Nc1cc(-c2[nH]c3cc(Cl)nnc3c2-c2ccccn2)ccn1)C(CC(F)F)c1ccc(F)cc1 (racemic) [Example 68] ; what pIC50 value has been reported? 8.16

Which pIC50 reading was recorded for the compound O=C(Nc1cc(-c2[nH]c3cccnc3c2-c2ccccn2)ccn1)C(CC(F)F)c1ccc(F)cc1 (single isomer, unassigned; (+)) [Example 11] ? 8.92

Request the reported pIC50 associated with O=C(Nc1cc(-c2[nH]c3ccc(Cl)nc3c2-c2ccccn2)ccn1)C(CC(F)F)c1ccc(F)cc1 (racemic) [Example 70] 8.27

Please look up its pIC50: O=C(Nc1cc(-c2[nH]c3ncc(F)nc3c2-c2ccccn2)ccn1)C(CC(F)F)c1ccc(F)cc1 (racemic) [Example 62] 8.41

Which pIC50 value is on record for O=C(Nc1cc(-c2[nH]c3ccc(F)nc3c2-c2cc(F)ccn2)ccn1)C(CC(F)F)c1ccc(F)cc1 (single isomer, unassigned) [Example 97] ? 7.44

What does the data say about its pIC50? Entry: O=C(Nc1cc(-c2[nH]c3c(OCC4CC4)ncnc3c2-c2ccccn2)ccn1)C(CC(F)F)c1ccc(F)cc1 (racemic) [Example 128] 8.10

Quick one: pIC50 for O=C(Nc1cc(-c2[nH]c3cccnc3c2-c2ncccn2)ccn1)C(CC(F)F)c1ccc(F)cc1 (racemic) [Example 112] ? 8.00

Could you share which pIC50 value was measured for O=C(Nc1cc(-c2[nH]c3ccnnc3c2-c2ccccn2)ccn1)C(CC(F)F)c1ccc(F)cc1 (racemic) [Example 65] ? 8.56

pIC50 lookup needed for Cc1cc(F)nc2c(-c3ccccn3)c(-c3ccnc(NC(=O)C(CC(F)F)c4ccc(F)cc4)c3)[nH]c12 (racemic) [Example 36] , thanks. 7.67

What measured pIC50 goes with COc1cnc2c(-c3ccccn3)c(-c3ccnc(NC(=O)C(CC(F)F)c4ccc(F)cc4)c3)[nH]c2c1 (stereo not shown) [Example 81] ? 8.40

Consider the compound shown here: O=C(Nc1cc(-c2[nH]c3ccc(F)nc3c2-c2ccccn2)ccn1)C(CC(F)F)c1ccc(F)cc1 (racemic) [Example 1] What is its recorded pIC50? 8.00

Look up pIC50 for this compound: O=C(Nc1cc(-c2[nH]c3c(OCC4CC4)ncnc3c2-c2ccccn2)ccn1)C(CC(F)F)c1ccc(F)cc1 (single isomer, unassigned) [Example 130] 7.36

// returns reported pIC50 for input CN1CCN(c2cc(F)nc3c(-c4ccccn4)c(-c4ccnc(NC(=O)C(CC(F)F)c5ccc(F)cc5)c4)[nH]c23)CC1 (racemic) [Example 56] 8.50

What value of measured pIC50 is listed for O=C(Nc1cc(-c2[nH]c3c(OCC(F)F)cc(F)nc3c2-c2ccccn2)ccn1)C(CC(F)F)c1ccc(F)cc1 (single isomer, unassigned) [Example 29] ? 8.48

Which pIC50 reading was recorded for the compound O=C(Nc1cc(-c2[nH]c3c(C4CCCO4)cc(F)nc3c2-c2ccccn2)ccn1)C(CC(F)F)c1ccc(F)cc1 (racemic) [Example 114] ? 8.17

Request the reported pIC50 associated with O=C(Nc1cc(-c2[nH]c3nccnc3c2-c2ccccn2)ccn1)C(CC(F)(F)F)c1ccc(F)cc1 (single isomer, unassigned) [Example 120] 8.87

Look up pIC50 for this compound: O=C(Nc1cc(-c2[nH]c3cccnc3c2-c2ccccc2)ccn1)C(CC(F)F)c1ccc(F)cc1 (racemic) [Example 22] 8.63

====

- Target system: full-length human CSNK1A1 (Homo sapiens, UniProt P48729)
- Construct: N-terminal Glutathion-S-Transferase (GST) and full-length human CSNK1A1; purchased Life Technologies PV4174; host or cells: baculovirus infected insect cells
- Sequence (P48729 whole entry): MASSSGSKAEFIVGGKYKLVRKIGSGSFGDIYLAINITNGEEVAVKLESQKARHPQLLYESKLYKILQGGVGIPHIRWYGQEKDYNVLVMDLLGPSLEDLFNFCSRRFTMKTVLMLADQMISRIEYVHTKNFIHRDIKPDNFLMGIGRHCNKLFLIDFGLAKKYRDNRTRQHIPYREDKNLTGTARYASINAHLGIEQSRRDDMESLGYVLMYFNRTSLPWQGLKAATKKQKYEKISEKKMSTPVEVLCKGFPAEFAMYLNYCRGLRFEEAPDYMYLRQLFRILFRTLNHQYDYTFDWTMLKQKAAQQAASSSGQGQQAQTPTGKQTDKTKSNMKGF
- Method notes: CSNK1A1 High ATP Assay (ADP-Glo, 1 mM ATP);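 further: 30 min kinase reaction at 22 °C with 100 µM peptide substrate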
- Format: biochemical
- Experimental parameters: Table 3, read-out: CSNK1A1 high ATP assay IC50 [mol/l] (median)
# strict inequality: IC50 < 10 nM yields MET, everything else yields NOT MET

Bench note: check whether Cc1cc2[nH]c(-c3ccnc(NC(=O)C(CC(F)F)c4ccc(F)cc4)c3)c(-c3ccccn3)c2nc1F (racemic) [Example 33] shows IC50 below 10 nM NOT MET

Could you please tell me whether IC50 recorded for COc1cc(F)nc2c(-c3ccccn3)c(-c3ccnc(NC(=O)C(CC(F)F)c4ccc(F)cc4)c3)[nH]c12 (single isomer, unassigned; (-)) [Example 41] is less than 10 nM? MET

Next:
Hello, I'm reviewing records and need to know if IC50 of Cc1cnc2c(-c3ccccn3)c(-c3ccnc(NC(=O)C(CC(F)F)c4ccc(F)cc4)c3)[nH]c2n1 (single isomer, unassigned; (+)) [Example 86] is below 10 nM. Could you check? MET

Determine whether this compound shows IC50 lower than 10 nM (ties excluded): O=C(Nc1cc(-c2[nH]c3ccnnc3c2-c2ccccn2)ccn1)C(CC(F)F)c1ccc(F)cc1 (racemic) [Example 65] MET

Consider the compound O=C(Nc1cc(-c2[nH]c3ccc(F)nc3c2-c2cc(F)ccn2)ccn1)C(CC(F)F)c1ccc(F)cc1 (racemic) [Example 95] . Is its IC50 strictly less than 10 nM? MET

Is the reported IC50 for O=C(Nc1cc(-c2[nH]c3cccnc3c2-c2cccc(F)n2)ccn1)C(CC(F)F)c1ccc(F)cc1 (racemic) [Example 25] strictly below 10 nM? NOT MET
